# Tested on: Bile acid receptor (Homo sapiens) (UniProt Q96RI1)
# Sequence (Q96RI1 whole entry, looked up): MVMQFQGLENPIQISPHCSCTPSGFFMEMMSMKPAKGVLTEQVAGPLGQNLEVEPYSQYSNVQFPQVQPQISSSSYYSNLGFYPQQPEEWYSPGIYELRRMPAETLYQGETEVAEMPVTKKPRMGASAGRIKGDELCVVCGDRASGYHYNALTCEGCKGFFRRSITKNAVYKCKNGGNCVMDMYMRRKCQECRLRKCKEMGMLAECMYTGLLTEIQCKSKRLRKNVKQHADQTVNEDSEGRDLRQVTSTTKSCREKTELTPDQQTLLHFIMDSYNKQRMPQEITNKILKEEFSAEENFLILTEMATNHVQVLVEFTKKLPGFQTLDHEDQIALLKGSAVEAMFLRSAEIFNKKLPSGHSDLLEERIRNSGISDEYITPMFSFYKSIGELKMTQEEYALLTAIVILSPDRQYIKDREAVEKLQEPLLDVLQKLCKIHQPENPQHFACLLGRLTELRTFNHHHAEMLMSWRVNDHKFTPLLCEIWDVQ
# Protocol text: OT_FXR_FXRSRC1_1440: Odyssey Thera (OT) 24-hour HEK293T Protein-Complementation Assay for Farnesoid X receptor/SRC-1 Co-activator (AID 2283384)
Inconclusive results are not listed. The source made the active and inactive calls. How the source made its calls: active means hit-call score of the fitted dose curve at least 0.9, where 1 is the maximum; inconclusive means response in the unintended direction; inactive means score below 0.9.
Measurement name: AC50

| Compound | AC50 |
| --- | --- |
| S=c1[nH]c2ccccc2s1 | inactive |
| C=CCc1ccc(OC)c(OC)c1 | inactive |
| COC(=O)CCCC(=O)OC | inactive |
| O=C(Oc1ccccc1)c1cccc(C(=O)Oc2ccccc2)c1 | inactive |
| Cc1cc(Cc2ccc(N)c(C)c2)ccc1N | 66.7 µM (active) |
| Cc1cc(SC2=C(O)C[C@@](CCc3ccc(N)cc3)(C(C)C)OC2=O)c(C(C)(C)C)cc1CO | inactive |
| CC(COCC(C)OC(=O)c1ccccc1)OC(=O)c1ccccc1 (stereo not drawn) | inactive |
| CC(C)OC(=O)C(C)(C)Oc1ccc(C(=O)c2ccc(Cl)cc2)cc1 | 7.72 µM (active) |
| O=C(NS(=O)(=O)/C=C/c1cccs1)c1ccc(F)cc1Br | 1.72 µM (active) |
| O=C(O)c1cccnc1 | inactive |

The recorded AC50 for entry CCCCCCC(CCCCCCCCCCC(=O)OCC(COC(C)=O)OC(C)=O)OC(C)=O (stereo not drawn) equals inactive

The compound O=C(N[C@@H](c1ccccc1)[C@@H]1CCCCN1)c1cccc(C(F)(F)F)c1Cl showed AC50 equal to 11.4 µM (active)

The reported value for CC(C)c1cccc(C(C)C)c1NC(=O)NS(=O)(=O)c1cc(C(C)(C)O)co1 in terms of AC50 is inactive
